- procedure-summary: Cell Viability - LYMP2-024 (AID 988);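 also: cells exposed to compound for 24 hr at 37 °C; nearly all actives have a fitted effect of over 60% in size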
- experimental-context: LYMP2-024 lymphoblastoid cell viability; series mostly up to 92.2 µM
Results filed as inconclusive are left out. Active and inactive are the calls of the source. Calls follow the shape of the dose curve; as a rule, active = well fitted cell-killing curve with a large enough effect; inconclusive = small, poorly fitted or top-dose-only effect; inactive = flat fitted curve, though single readings scatter.
# output must be one of active, inactive

Take a look at these entries with their results.
Request: Call for entry COc1ccc(/C=C/c2cc(OC)cc(=O)o2)cc1 :
Result: inactive

Request: What was the test verdict on C[C@H](CCC(=O)O)[C@H]1CC[C@H]2[C@@H]3CC[C@@H]4C[C@H](O)CC[C@]4(C)[C@H]3CC[C@]12C ?
Result: inactive

Request: For CN(C)C=O , what call appears in the results of this test?
Result: inactive

Request: Just curious, what result did O[C@@H]([C@H](O)[C@@H](O)CBr)[C@@H](O)CBr get here?
Result: inactive

Request: Give the logged outcome of this assay for the following molecule: CCCCOCCO
Result: inactive

New cases:
Request: Hello, I am checking results. What call was entered for c1ccc2c(c1)[nH]c1ccccc12 ?
Result: inactive

Request: Give the logged outcome of this assay for the following molecule: NC1=NC(S)C2N=CN=C2N1 (stereo unspecified)
Result: active

Request: Recorded call for O=C(O)c1ccccc1C(c1ccc(O)cc1)c1ccc(O)cc1 ?
Result: inactive

Request: Please share the test call associated with COC(=O)c1ccc(C)cc1 .
Result: inactive

Request: Please let me know the test result on file for C=C(C)C1CC=C(C)C(O)C1 (stereo unspecified) .
Result: inactive

Request: Answer briefly: the call reported for COC(=O)c1ccc(C=O)cc1 in this assay.
Result: inactive

Request: I'd appreciate the recorded outcome for CCO[Si](CCCN)(OCC)OCC from this test.
Result: inactive

Request: Which outcome was entered for the molecule COC(=O)CCCCC(=O)OC in this test?
Result: inactive

Request: For CCCCCCCCCCCCCC(=O)O , which call appears in the assay record?
Result: inactive

Request: Given COc1ccc2nc(N)sc2c1 , state the outcome it received in this test.
Result: inactive

Request: Hi, do you know how OCCNCCO came out in this test?
Result: inactive

Request: Test call, this molecule: CCCCCCCCCCCCCCC1CO1 (stereo unspecified)
Result: inactive

Request: Each molecule tested received a call. Report the one for O=S(=O)(O)c1ccccc1 .
Result: inactive

Request: Kindly provide the recorded test outcome for the following molecule: O=[N+]([O-])c1cccc(Cl)c1Cl
Result: inactive

Request: Which outcome was entered for the molecule CCC(C)c1ccccc1O (stereo unspecified) in this test?
Result: inactive

Request: Tell me the assay call for O=C(O)c1ccccc1 please.
Result: inactive

* * *

- system-tested: Rap guanine nucleotide exchange factor 3 (Homo sapiens)
- procedure-summary: Counterscreen qHTS for antagonist of cAMP-regulated guanine nucleotide exchange factor 3 (EPAC1) (AID 1645888);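 also: fluorescence loss as bound BODIPY-GDP is released from Rap1B; % of control where 0% means no effect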
- experimental-context: Rap1B-BODIPY-GDP nucleotide exchange, fluorescence; series mostly up to 154 µM
Records with an inconclusive call do not appear. The source made the active and inactive calls. Calls follow the shape of the dose curve; as a rule, active = well fitted inhibition curve with a large enough effect; inconclusive = small, poorly fitted or top-dose-only effect; inactive = no such curve, though single readings can be large or run the other way.
experimental-readout: activity change, negative = inhibition

Solved cases (4 shown):
Request: Specify activity change, negative = inhibition for COc1ccc(S(=O)(=O)Nc2ccc3cn[nH]c3c2)cc1C and stop.
Result: inactive

Request: # return recorded activity change, negative = inhibition for input O=S(=O)(Nc1ccccc1N1CCCCC1)c1ccccc1
Result: inactive

Request: Given the compound CCN(C(=O)c1sc2cc(OC)ccc2c1Cl)c1ccccc1 , write its reported activity change, negative = inhibition.
Result: inactive

Request: Identify measured activity change, negative = inhibition corresponding to OCCCNc1ncnc2oc(-c3ccccc3)c(-c3ccccc3)c12
Result: -6.04% [at 30.8 µM] (inactive)

Continuing:
Request: State, in one line, measured activity change, negative = inhibition of COc1cccc(C(=O)Nc2ccc(NC(=O)c3ccco3)c(Cl)c2)c1
Result: -46.5% [at 30.8 µM] (inactive)

Request: Respond only with activity change, negative = inhibition recorded for COc1ccccc1-n1c(C)c(C(=O)O)c2cc(OC)c3ccccc3c21
Result: inactive

Request: Return activity change, negative = inhibition (reported value) for this compound: COc1ccc(/C=C/C(=O)c2ccccc2)c(OC)c1
Result: -16.1% [at 30.8 µM] (inactive)

Request: State its activity change, negative = inhibition: O=C(Nc1cccc(Cl)c1N1CCOCC1)c1cccs1
Result: inactive

Request: Note down activity change, negative = inhibition recorded for O=C(O)C1CC(=O)N(c2ccc(OCc3c(F)cccc3Cl)cc2)C1 (centres undefined)
Result: inactive
